Test system: Plasmodium berghei
measurement description: Screen against P. berghei liver stage (PbLuc), transformed with Luciferase, at 2uM
Type: functional, HepG2
settings: tested at 2 uM
Out of some 68,000 compounds screened, about 2,700 (4%) showed an effect of 50% or more. What follows is part of a selection rich in strong results, with near analogues and random picks from the rest.
assay readout: INHIBITION (%)
Answers are plain numbers, in %.

Answered examples (5):
>>> endpoint_result("COCCN1CCC(C(=O)c2cc(F)ccc2F)CC1")
-11.34
>>> endpoint_result("O=C(CCN1CCC(C(=O)c2cc(F)ccc2F)CC1)NC1CCCC1")
64.9
>>> endpoint_result("O=C(CCN1CCC(C(=O)c2cc(F)ccc2F)CC1)NC1CC1")
34.93
>>> endpoint_result("CCn1cc(S(=O)(=O)Nc2ccc3[nH]c(C4CCC4)nc3c2)cn1")
-16.18
>>> endpoint_result("COc1cccc(NC(=O)NCC(Cc2cnn(C)c2)C(N)=O)c1 (configuration not stated)")
55.25

Would you be so kind as to report INHIBITION for each listed record?
1. COCC1Cn2nnc(-c3cnn(C)c3)c2CN1Cc1cccs1 (configuration not stated)
2. COc1cccc(NC(=O)NCc2cnn(C)c2)c1
3. COCC1Cn2nnc(-c3cnn(C)c3)c2CN1Cc1ccc(C)o1 (configuration not stated)
4. COCC1Cn2nnc(-c3cnn(C)c3)c2CN1Cc1ccsc1 (configuration not stated)
5. O=C(COCc1nc(-c2ccncc2)no1)N1CCCCC1

*A*
1. -34.95
2. 7.33
3. 56.76
4. 33.14
5. 27.89

Would you be so kind as to report INHIBITION for each listed record?
1. Cn1cc(CC(CNC(=O)Nc2cccc(Cl)c2)C(N)=O)cn1 (configuration not stated)
2. COCC1Cn2nnc(-c3cnn(C)c3)c2CN1Cc1ccoc1 (configuration not stated)

*A*
1: 31.78; 2: 19.42

* * *

System: Plasmodium berghei
measurement description: Screen against P. berghei liver stage (PbLuc), transformed with Luciferase, at 2uM
Format: functional, HepG2
settings: tested at 2 uM
The campaign covered roughly 68,000 compounds. About 2,700 (4%) showed an effect of 50% or more. The sample holds strong results, similar compounds and a random draw of the others, so the mix is not that of the screen.
I'd appreciate it if you could supply INHIBITION values for the items below.
One number for each entry, in %.

>>> endpoint_result("COCCO[C@@H]1CCN(C(=O)c2ccc[nH]2)[C@H]1Cc1cnn(C)c1")
66.69
>>> endpoint_result("Cn1cc(N2CCC(NC(=O)c3ccccc3Cl)C2=O)cn1 (stereo not given)")
28.95
>>> endpoint_result("Cc1ccc(CN2CCC[C@@H]3CN(C(=O)c4ccco4)C[C@@H]32)o1")
50.17
>>> endpoint_result("COCCO[C@H]1CCN(C(=O)c2ccno2)[C@H]1Cc1cnn(C)c1")
1.02

Would you be so kind as to report INHIBITION for each listed record?
1. CCO[C@@H]1CCN(C(=O)c2ccnnc2)[C@@H]1Cc1cnn(C)c1
2. COc1ccc(CN2CCC[C@@H]3CN(C(=O)c4ccco4)C[C@@H]32)cc1

*A*
18.15
-24.31

Would you be so kind as to report INHIBITION for each listed record?
1. Cn1cc(N2CCC(NC(=O)c3c(F)cccc3Cl)C2=O)cn1 (stereo not given)
2. COCCO[C@H]1CCN(C(=O)c2cnoc2C)[C@H]1Cc1cnn(C)c1
3. CN(C)C(=O)N1CC[C@@H](O)[C@@H]1Cc1cnn(C)c1
4. Cn1cc(C[C@H]2[C@@H](OCC3CC3)CCN2C(=O)c2ccc[nH]2)cn1

*A*
1. 50.98
2. 63.06
3. 12.88
4. -1.33
